Method: clinical
Measurement Context: human, in vivo, iv, Vdss
Numbered stars: 1 amine (or outer) side, 2 acyl side, 3 side chain; on linkers, the order of the positions; unused ones are H or OH. Bridge positions count the residues as written; N and C are the ends. Square brackets hold non-standard residues; d marks the D form. Peptide text beside a SMILES is read from it. * marks the point of attachment. X2 = O=C1C[C@@H](C(=O)[*:2])N([*:1])C[C@H]1CS[C@@H]1CN2CCC1CC2; NMePhe(4-NMe2) = CN[C@@H](Cc1ccc(N(C)C)cc1)C(=O)O; Picolinoyl(3-OH) = O=C(c1ncccc1O)*; Phg = N[C@H](C(=O)O)c1ccccc1; dAbu = CC[C@@H](N)C(=O)O
Quantity: log10(Vd) (log10 of the value in L/kg)

>>> val("COc1ccccc1Oc1c(NS(=O)(=O)c2ccc(C(C)(C)C)cc2)nc(-c2ncccn2)nc1OCCO")
-0.54
>>> val("COc1cc([C@@H]2c3cc4c(cc3C(OC3OC5COC(C)OC5C(O)C3N)C3COC(=O)[C@@H]32)OCO4)cc(OC)c1O (stereo not given in full)")
-0.52
>>> val("CCC(=O)O[C@]1(C(=O)SCF)[C@H](C)C[C@H]2[C@@H]3C[C@H](F)C4=CC(=O)C=C[C@]4(C)[C@@]3(F)[C@@H](O)C[C@@]21C [FLUTICASONE PROPIONATE]")
0.56
>>> val("CO/N=C(\\C(=O)N[C@@H]1C(=O)N2C(C(=O)O)=C(COC(C)=O)CS[C@H]12)c1csc(N)n1")
-0.72
>>> val("CC1(C)S[C@@H]2[C@H](NC(=O)C(C(=O)O)c3ccccc3)C(=O)N2[C@H]1C(=O)O (stereo not given in full)")
-0.77
>>> val("COc1ccc([C@]2(C#N)CC[C@@H](C(=O)O)CC2)cc1OC1CCCC1")
-0.64
>>> val("O=C(O)c1cc(/N=N/c2ccc(O)c(C(=O)O)c2)ccc1O")
-1.15
>>> val("CNCCC=C1c2ccccc2CCc2ccccc21")
1.34
>>> val("COc1cc2nc(N3CCN(C(=O)C4COc5ccccc5O4)CC3)nc(N)c2cc1OC (stereo not given)")
0.11
>>> val("CC1(C)C[C@@H]1C(=O)N/C(=C\\CCCCSC[C@H](N)C(=O)O)C(=O)O")
-0.82
>>> val("CC[C@H]1NC(=O)[C@@H](NC(=O)c2ncccc2O)[C@@H](C)OC(=O)[C@H](c2ccccc2)NC(=O)[C@@H]2CC(=O)[C@H](CS[C@@H]3CN4CCC3CC4)CN2C(=O)[C@H](Cc2ccc(N(C)C)cc2)N(C)C(=O)[C@@H]2CCCN2C1=O [QUINUPRISTIN] ({Picolinoyl(3-OH)}-T[dAbu]P[NMePhe(4-NMe2)][X2][Phg]; ester 1-C)")
-0.17
>>> val("CC1=C(CO)C2=C(C)C3(CC3)[C@@](C)(O)C(=O)C2=C1")
0.49
>>> val("C[C@]12CC[C@@H]3c4ccc(OC(=O)N(CCCl)CCCl)cc4CC[C@H]3[C@@H]1CC[C@@H]2OP(=O)(O)O [ESTRAMUSTINE PHOSPHATE]")
-0.92
>>> val("Nc1n[n+]([O-])c2ccccc2[n+]1[O-]")
-0.25
>>> val("CC(C)(C)NCC(O)COc1cccc2c1CC(O)C(O)C2 (stereo not given)")
0.28

###

# reported half-life; entries follow
Method: clinical
Measurement Context: human, in vivo, iv, t1/2
Quantity: half-life (h)

>>> val("COc1ccc2c3c1O[C@H]1C[C@@H](O)C=C[C@@]31CCN(C)C2 [GALANTAMINE]")
5.3
>>> val("CCN(CCO)CCCC(C)Nc1ccnc2cc(Cl)ccc12 (stereo unspecified) [HYDROXYCHLOROQUINE]")
850
>>> val("O=c1c(O)c(-c2ccc(O)c(O)c2)oc2cc(O)cc(O)c12 [QUERCETIN]")
0.6
>>> val("CN(C)C(=O)CCS[C@H](SCCC(=O)O)c1cccc(/C=C/c2ccc3ccc(Cl)cc3n2)c1")
2.3
>>> val("CC(=O)N[C@@H](CS)C(=O)O [ACETYLCYSTEINE]")
5.5
>>> val("NC(N)=Nc1nc(CSCCC(N)=NS(N)(=O)=O)cs1 [FAMOTIDINE]")
2.8
>>> val("CC(=O)O[C@H]1C[C@@H]2CC[C@@H]3[C@H](CC[C@@]4(C)[C@H]3C[C@H]([N+]3(C)CCCCC3)[C@@H]4OC(C)=O)[C@@]2(C)C[C@@H]1N1CCCCC1.[Br-] [VECURONIUM BROMIDE]")
1.4
>>> val("CC(C)N(CCC(C(N)=O)(c1ccccc1)c1ccccn1)C(C)C (stereo unspecified) [DISOPYRAMIDE]")
7
>>> val("O=C(NCC1CCCCN1)c1cc(OCC(F)(F)F)ccc1OCC(F)(F)F (stereo unspecified) [FLECAINIDE]")
12
>>> val("CC(=O)Nc1c(I)c(C(=O)O)c(I)c(N(C)C(C)=O)c1I [METRIZOIC ACID]")
1.3
>>> val("CCCCCCCCCCNCCN[C@@]1(C)C[C@H](O[C@H]2[C@H](Oc3c4cc5cc3Oc3ccc(cc3Cl)[C@@H](O)[C@@H](NC(=O)[C@@H](CC(C)C)NC)C(=O)N[C@@H](CC(N)=O)C(=O)N[C@H]5C(=O)N[C@H]3C(=O)N[C@H](C(=O)N[C@H](C(=O)O)c5cc(O)c(CNCP(=O)(O)O)c(O)c5-c5cc3ccc5O)[C@H](O)c3ccc(c(Cl)c3)O4)O[C@H](CO)[C@@H](O)[C@@H]2O)O[C@@H](C)[C@H]1O [TELAVANCIN]")
6.7

###

Method: clinical
Measurement Context: human, in vivo, iv
Quantity: log10 MRT (log10 of the value in h)

>>> val("C=CC[N+]1([C@H]2C[C@H]3[C@@H]4CC[C@H]5C[C@H](O)[C@@H](N6CCOCC6)C[C@]5(C)[C@H]4CC[C@]3(C)[C@H]2OC(C)=O)CCCC1")
-0.02
>>> val("CN(C)/N=N/c1ccc(C(=O)O)cc1")
0.48
>>> val("C[C@@H]([C@@H](O)c1ccc(O)cc1)N1CCC(O)(c2ccccc2)CC1")
0.41
>>> val("c1ccc(C2(N3CCCCC3)CCCCC2)cc1")
1.36
>>> val("COc1ccc2c3c1O[C@H]1[C@@H](O)C=C[C@H]4[C@@H](C2)N(C)CC[C@@]341")
0.59
>>> val("CN(C)C(=O)CCS[C@H](SCCC(=O)O)c1cccc(/C=C/c2ccc3ccc(Cl)cc3n2)c1")
0.43
>>> val("CCCCN1CCCCC1C(=O)Nc1c(C)cccc1C (configuration not stated)")
0.52
>>> val("CCCc1cc(=O)[nH]c(=S)[nH]1")
0.26
>>> val("C[C@H]1COc2c(N3CCN(C)CC3)c(F)cc3c(=O)c(C(=O)O)cn1c23.C[C@H]1COc2c(N3CCN(C)CC3)c(F)cc3c(=O)c(C(=O)O)cn1c23.O")
1.04
>>> val("Fc1ccc([C@@H]2CCNC[C@H]2COc2ccc3c(c2)OCO3)cc1")
1.23
>>> val("CCOC(=O)Nc1ccc(NCc2ccc(F)cc2)nc1N")
1.04
>>> val("Oc1ncnc2[nH]ncc12")
-0.06
>>> val("CN(C)CCN(Cc1cccs1)c1ccccn1")
0.30
>>> val("COc1cc(CC2c3c(cc(OC)c(OC)c3OC)CC[N+]2(C)CCCOC(=O)CCC(=O)OCCC[N+]2(C)CCc3cc(OC)c(OC)c(OC)c3C2Cc2cc(OC)c(OC)c(OC)c2)cc(OC)c1OC (configuration not stated)")
0.15
>>> val("OC(CCN1CCCC1)(c1ccccc1)C1CCCCC1 (configuration not stated)")
1.15
>>> val("COc1cc(NCc2ccc3nc(N)nc(N)c3c2C)cc(OC)c1OC [TRIMETREXATE]")
1.23
>>> val("Cc1cccc(C)c1OCC(C)N (configuration not stated)")
1.08
>>> val("N/N=c1/cc2c(n[nH]1)CCN(C(=O)c1ccccc1)C2")
0.43
>>> val("CNC(=O)c1cccc2c(Nc3ccc(NS(C)(=O)=O)cc3OC)c3cccc(C)c3nc12")
0.28
>>> val("CCCC1C(=O)N2C(N(C)C)=Nc3ccc(C)cc3N2C1=O (configuration not stated)")
1.15
>>> val("Cc1ncc2n1-c1ccc(Cl)cc1C(c1ccccc1F)=NC2")
0.54
>>> val("CC(=O)[C@H]1CC[C@H]2[C@@H]3CC[C@@H]4C[C@H](O)CC[C@]4(C)[C@H]3CC[C@]12C")
0.18

###

Method: clinical
Measurement Context: human, in vivo, iv
Quantity: MRT (h)

>>> val("CCC(C)(C)NCC(O)COc1ccccc1C(=O)CCc1ccccc1 (centres undefined) [DIPRAFENONE]")
1.9
>>> val("NNc1nncc2ccccc12 [HYDRALAZINE]")
0.29
>>> val("C[C@H]1O[C@@H](O[C@H]2[C@@H](O)C[C@H](O[C@H]3[C@@H](O)C[C@H](O[C@H]4CC[C@@]5(C)[C@H](CC[C@@H]6[C@@H]5CC[C@]5(C)[C@@H](C7=CC(=O)OC7)CC[C@]65O)C4)O[C@@H]3C)O[C@@H]2C)C[C@H](O)[C@@H]1O [DIGITOXIN]")
170
>>> val("Cc1nnc2n1-c1ccc(Cl)cc1C(c1ccccc1)=NC2 [ALPRAZOLAM]")
18
>>> val("CC(C(=O)O)c1ccc(C(=O)c2cccs2)cc1 (centres undefined) [SUPROFEN]")
0.88
>>> val("CCOC(=O)C1=C(C)NC(C)=C(C(=O)OC)C1c1cccc([N+](=O)[O-])c1 (centres undefined) [NITRENDIPINE]")
4.1
>>> val("CN1CCN(CCCN2c3ccccc3Sc3ccc(Cl)cc32)CC1 [PROCHLORPERAZINE]")
23
>>> val("O=C(N[C@H](CO)[C@H](O)c1ccc([N+](=O)[O-])cc1)C(Cl)Cl [CHLORAMPHENICOL]")
6.5
>>> val("CCn1cc(C(=O)O)c(=O)c2cc(F)c(N3CCNCC3)nc21 [ENOXACIN]")
6.2
>>> val("O=C(O)[C@H]1/C(=C/CO)O[C@@H]2CC(=O)N21 [CLAVULANIC ACID]")
1
>>> val("O=C1CN=C(c2ccccc2Cl)c2cc([N+](=O)[O-])ccc2N1 [CLONAZEPAM]")
55
>>> val("CN1CCCC(n2nc(Cc3ccc(Cl)cc3)c3ccccc3c2=O)CC1 (centres undefined) [AZELASTINE]")
27
>>> val("NC1CCN(c2c(F)cc3c(=O)c(C(=O)O)cn(C4CC4)c3c2Cl)C1 (centres undefined) [CLINAFLOXACIN]")
6.7
>>> val("CC1(C)S[C@@H]2[C@H](NC(=O)C(C(=O)O)c3ccccc3)C(=O)N2[C@H]1C(=O)O (some centres undefined) [CARBENICILLIN]")
1.5
>>> val("CC(=O)O[C@H]1C[C@@H]2CC[C@@H]3[C@H](CC[C@@]4(C)[C@H]3C[C@H]([N+]3(C)CCCCC3)[C@@H]4OC(C)=O)[C@@]2(C)C[C@@H]1N1CCCCC1.[Br-] [VECURONIUM BROMIDE]")
1.1
>>> val("C=CCC1(C(C)C#CCC)C(=O)N=C(O)N(C)C1=O (centres undefined) [METHOHEXITAL]")
1.5
>>> val("Nc1ccn([C@@H]2O[C@H](CO)[C@@H](O)C2(F)F)c(=O)n1 [GEMCITABINE]")
0.81
>>> val("CN/C(=N/CCSCc1nc[nH]c1C)NC#N [CIMETIDINE]")
2.5
>>> val("O=c1[nH]cnc2c1ncn2[C@H]1CC[C@@H](CO)O1 [DIDANOSINE]")
1.2
>>> val("C[C@@H](c1ncncc1F)[C@](O)(Cn1cncn1)c1ccc(F)cc1F [VORICONAZOLE]")
4.4
>>> val("CCC1(c2ccccc2)C(=O)NC(=O)NC1=O [PHENOBARBITAL]")
140
>>> val("O=NN(CCCl)C(=O)NCCCl [CARMUSTINE]")
0.26
>>> val("CCCCCCCN(CC)CCCC(O)c1ccc(NS(C)(=O)=O)cc1 (centres undefined) [IBUTILIDE]")
7.7
>>> val("CC1(C)S[C@@H]2[C@H](NC(=O)Cc3ccccc3)C(=O)N2[C@H]1C(=O)O [PENICILLIN G]")
0.58

Source: ChEMBL document CHEMBL1614632
